B1: Hairpin Ribozyme (parent)
chain: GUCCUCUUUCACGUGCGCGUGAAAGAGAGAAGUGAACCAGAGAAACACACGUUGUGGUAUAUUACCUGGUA

# Variants of: B1
# assay.info: self-cleavage, relative activity (ratio to wild type); higher = more cleavage; co-transcriptional
test.readout: self-cleavage
Keep the answer to the number alone.

The examples below pair each entry with its known result.
GUCCUCUUUCACGUGCGCGGGAAAGAGAGAAGUGAACCAGAGAAGCACACGUUGUGGUAUAUUACCUGGUA : 0.128
GUCCUCUUUCACGUGCGCGUGAAAGAGAGAAGUGAACCAGAGAAACACACGUUGGGGUAGAUUACCUGGUA : 0.185
GUCCUCUUUCACGUGCGCGUGAAAGCGAGAAGUGAACCAGAGAAAAACACGUUGUGGUAUAUUACCUGGUA : 0.175
GUCCUCUUUCACGUGCGCAUGAAAGAGAGAAGUGAACCAGAGAAACACACGUUGUGGUUUAUUACCUGGUA : 0.0875
GUCCUCUUUCACGUGCGCGUGAAUGAGAGAAGUGAACCAGAGAAACACACGUUGUGGUCUAUUACCUGGUA : 0.139
GUCCUCUUUCACGUGCGUGUGAAAGAGAGAAGUGAACCAGAGAAACACACGUUGUGGUAUAUUACCGGGUA : 0.303

For the variant `GUCCUCUUUCACGUGCGCGUGACAGAGAGAAGUGAACCAGAGAAACAAACGUUGUGGUAUAUUACCUGGUA` , what self-cleavage is on record?
0.0725

For the variant `GUCCUCUUGCACGUGCGCGUGAAAGAGAGAAGUGAACGAGAGAAACACACGUUGUGGUAUAUUACCUGGUA` , what self-cleavage is on record?
0.175

For the variant `GUCCUCUUUCACGUGCGCGUGAAAGAGAGAAUUGAACCAGAGGAACACACGUUGUGGUAUAUUACCUGGUA` , what self-cleavage is on record?
0.0636

For the variant `GUCCUCUUUCACGUGCGCGUGAAAGAGAUAAGUGAACCAGAGAAACACACGGUGUGGUAUAUUACCUGGUA` , what self-cleavage is on record?
0.0467

For the variant `GUCCUCUUUCACGUGGGCGUGCAAGAGAGAAGUGAACCAGAGAAACACACGUUGUGGUAUAUUACCUGGUA` , what self-cleavage is on record?
0.604

For the variant `GACCUCUUUCACGUGCGUGUGAAAGAGAGAAGUGAACCAGAGAAACACACGUUGUGGUAUAUUACCUGGUA` , what self-cleavage is on record?
0.314
